Molecular target: MAST1, Q9Y2H9
Sequence (Q9Y2H9 962-1065): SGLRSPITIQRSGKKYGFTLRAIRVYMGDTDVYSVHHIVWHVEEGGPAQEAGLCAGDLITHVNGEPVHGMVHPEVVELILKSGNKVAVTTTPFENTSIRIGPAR
Test: holdup assay
Set-up: key: below the threshold = too weak to quantify, mostly under pKd 3.1 to 4
Conditions: plain residues with an end cap or a label only (N-terminal biotin on a linker: ttds)
Metric: pKd
Format: numeric value only, no unit, no commentary.

binder="IDNDTESTAL [ARHGAP17, Q68EM7]" metric=pKd value=4.91
binder="GQDSREETQL [KCNT2, Q6UVM3]" metric=pKd value=5.14

# input for lookup
Give the reported pKd for this binder. IYVPEAQTRL [DLGAP4, Q9Y2H0]
5.01
